System Name: T1, canine CD20 on cells (HEK293, MDCK II, CLBL-1 or native B cells) (canine, UniProt Q3C2E2 1-297)
T1 construct: also called dCD20; cCD20
T1 chain: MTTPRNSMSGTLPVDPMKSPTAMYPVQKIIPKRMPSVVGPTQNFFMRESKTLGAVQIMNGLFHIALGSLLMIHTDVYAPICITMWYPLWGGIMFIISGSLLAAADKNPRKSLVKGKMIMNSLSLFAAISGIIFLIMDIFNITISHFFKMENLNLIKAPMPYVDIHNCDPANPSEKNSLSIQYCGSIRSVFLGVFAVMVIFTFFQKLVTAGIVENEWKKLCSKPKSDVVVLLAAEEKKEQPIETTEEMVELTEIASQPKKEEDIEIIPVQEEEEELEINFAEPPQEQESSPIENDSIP
Protocol Description: flow cytometry, canine CD20 HEK293 cells, 10 µg/ml, FITC anti-canine IgG
Measured Property: binding result

Binder	Measured Property	Result
PMX241 (monospecific anti-canine CD20, canine IgG-B, lambda C5) (antibody, V domains shown) VH: EVQLVESGGDLVKPGGSLRLSCVASGITFSGYHMSWVRQAPGKGLQWVAFINSGRRSTSYADAVKGRFTISRDNAKNTLYLQMNSLRAEDTAIYYCTTLEFWGQGTLVTVSS VL: SYVLTQLPSKNVTLKQPAHITCGGDNIGSKSVHWYQQKLGQAPVLIIYYDSRRPTGIPERFSGANSGNTATLTINGALAEDEADYYCQMWDSSVNVFGGGTHLTVLG	binding result	binds
PMX260 (monospecific anti-canine CD20, canine IgG-B, lambda C5) (antibody, V domains shown) VH: EVQLVESGGDLVKPGGSLRLSCVASGFTFRRYHMSWVRQAPGKGLQWVAYIDSGGSGTSYADAVKGRFTISRDNAKNTLYLQMNSLRAEDTAVYYCSSLDYWGQGTLVTVSS VL: SYVLTQLPSKNVTLKQPAHITCGGDNIGSKSVHWYQQKLGQAPVLIIYYDSRRPTGIPERFSGANSGNTATLTISGALAEDEADYYCQVWDSSGNVFGGGTHLTVLG	binding result	binds
PMX270 (monospecific anti-canine CD20, canine IgG-B, lambda C5) (antibody, V domains shown) VH: EVQLVESGGDLVKPGGSLRLSCVASGFTFSRYYMTWVRQAPGKGLQWVAYINSDRRSTTYADAVKGRFTISRDNAKNTLYLQMNSLRAEDTAVYYCTTLEYWGQGTLVTVSS VL: SYVLTQLPSKNVTLKQPAHITCGGDNIGSKSVHWYQQKLGQAPVLIIYYDSRRPTGIPERFSGANSGNTATLTINGALAEDEADYYCQVWDSSANVFGGGTHLTVLG	binding result	binds
PMX232 (monospecific anti-canine CD20, canine IgG-B, lambda C5) (antibody, V domains shown) VH: EMQLVESGGDLVKPGESLRLSCVASGISFNNYHMSWVRQAPGKGLQWVAYIDSVGTSTTYADAVKGRFTISRDNAKNTLYLQMNSLRAEDTAVYYCTTFDSWGQGTLVTVSS VL: SYVLTQLPSKNVTLKQPAHITCGGDNIGSKSVHWYQQKLGQAPVLIIYYDSRRPTGIPERFSGANSGNTATLTISGALAEDEADYYCQVWDSSANVFGGGTHLTVLG	binding result	binds

Give the measured binding result for PMX269 (monospecific anti-canine CD20, canine IgG-B, lambda C5) (antibody, V domains shown) VH: EVRLVESGGDLVKPGGSLRLSCVASGLTFNRYYMSWVRQGPGKGLQWVAYIDSGGSPTTYADTVKGRFTISRDNAKNTLYLQMNSLRVEDTAVYYCTTLEYWGQGTLVTVSS VL: SYVLTQLPSKNVTLKQPAHITCGGDNIGSKSVHWYQQKLGQAPVLIIYYDSSRPTGIPERFSGANSGNTATLTISGALAEDEADYYCQVWDTSANVFGGGTHLTVLG binds
